Values were extracted from PubChem BioAssay (NCI).

- Tested on: HOP-62 NSCLC
- Procedure text: NCI-60 one-dose screen, 48 h (100 = growth as untreated, 0 = no growth, -100 = all killed)
- Condition description: 10 µM
This is part of a sample that, as a whole, favours compounds with a hit. Of some 83,000 tested, about 20% had one in any assay.
Value kind: growth (%)
Just the number please, in %, no unit attached.

// growth lookup, key: Cc1ccccc1C1N=C2Oc3ccccc3C=C2C(=O)N1 (stereo unspecified)
33.3

// growth lookup, key: COc1cc(C2NC(=O)C(C#N)=C(Nc3cccc(C)c3)S2)ccc1O (stereo unspecified)
98.1

// growth lookup, key: `CC[N+](C)(CC)CCO`
92.6

// growth lookup, key: `O=C1C=CC(=O)N1c1ccc(I)cc1Cl`
90.7

// growth lookup, key: `CC(=O)N(C)c1ccc([N+](=O)[O-])cc1`
111

Next:
// growth lookup, key: CCN(CC)CCCC(C)Nc1ccnc(/C=C/c2ccc(Cl)cc2)c1 (stereo unspecified)
38.4

// growth lookup, key: `CCOC(=O)c1[nH]c(C)c(C(=O)O)c1C`
111

// growth lookup, key: `CCc1ccc(/C(C#N)=C/C=C/c2ccccc2)cc1`
34.4

// growth lookup, key: `CC(C)COC(=O)COC(=O)OCCOCCOC(=O)OCC(=O)OCC(C)C`
98.1

// growth lookup, key: `O=C(NC1CCCCC1)OCc1c(COC(=O)NC2CCCCC2)c(-c2ccc(Cl)c(Cl)c2)n2c1CCC2`
27.4

// growth lookup, key: `COc1cc2cc(c1Cl)N(C)C(=O)C[C@H](OC(=O)[C@H](C)N(C)C(C)=O)[C@]1(C)O[C@H]1[C@H](C)[C@@H]1C[C@@](O)(NC(=O)O1)[C@H](OC)C=C/C=C(\C)C2`
14

// growth lookup, key: `CCCCCC(C)(CC(=O)O)CC(=O)O`
101

// growth lookup, key: CCCCCCCCCCC1CO1 (stereo unspecified)
95.1

// growth lookup, key: `NC(N)=Nc1cc2ccccc2c2ccccc12`
101

// growth lookup, key: `CCCCC(=O)c1ccc(OC)cc1`
112

// growth lookup, key: `S=C1CCCCCN1`
92.9

----------
# growth annotations
- Test system: HCT-116 colon
- Procedure text: NCI-60 one-dose screen, 48 h (100 = growth as untreated, 0 = no growth, -100 = all killed)
- Condition description: 10 µM
This is part of a sample that, as a whole, favours compounds with a hit. Of some 83,000 tested, about 20% had one in any assay.
Just the number please, in %, no unit attached.

Query the reported growth for HCT-116 colon; item: COc1ccc(C(C)C=O)cc1 (stereo not drawn)
101

Query the reported growth for HCT-116 colon; item: `Cc1cc(=O)n(-c2ccc(F)cc2)[nH]1`
104

Next:
Query the reported growth for HCT-116 colon; item: `COC(=O)c1cccc(Br)c1`
97.8

----------
# growth annotations
- System: IGROV1 ovarian
- Procedure text: NCI-60 one-dose screen, 48 h (100 = growth as untreated, 0 = no growth, -100 = all killed)
- Condition description: 10 µM
The panel holds about 83,000 compounds, 20% with a hit somewhere; the sample as a whole holds those more often.
Just the number please, in %, no unit attached.

Query the reported growth for IGROV1 ovarian; item: `CC1(C)N=C(N)N=C(N)N1c1cccc(Br)c1`
54.9

Query the reported growth for IGROV1 ovarian; item: `CN(C)C(=O)Oc1cccc([N+](C)(C)C)c1`
115

Query the reported growth for IGROV1 ovarian; item: `Nc1nc(N)c2cc(S(=O)(=O)c3cccc(C(F)(F)F)c3)ccc2n1`
39.5

Query the reported growth for IGROV1 ovarian; item: `C/C(=C\c1ccc([N+](=O)[O-])cc1)C(=O)O`
110

Next:
Query the reported growth for IGROV1 ovarian; item: `CCCCCCCCCCCCCC(=O)Oc1ccc[nH]c1=O`
97.8

Query the reported growth for IGROV1 ovarian; item: `COC(=O)c1cccc(Br)c1`
116

Query the reported growth for IGROV1 ovarian; item: `CCOC(=O)c1ccc(Nc2sc(C(=O)c3cccc([N+](=O)[O-])c3)c(N)c2C#N)cc1`
-6.69

Query the reported growth for IGROV1 ovarian; item: `S=c1[nH]ccn1-c1ccccc1Cl`
108

Query the reported growth for IGROV1 ovarian; item: NC(CSC(c1ccccc1)(c1ccccc1)c1ccccc1)C(=O)O (configuration not stated)
63.3

Query the reported growth for IGROV1 ovarian; item: `CCO/C=C1\SC(=S)N(c2cccc(C)c2)C1=O`
107

Query the reported growth for IGROV1 ovarian; item: `COc1ccccc1NC(=O)c1cc2cc(Br)ccc2cc1O`
-46

Query the reported growth for IGROV1 ovarian; item: `Cc1cc2nc(CC(=O)c3cccc([N+](=O)[O-])c3)c(=O)[nH]c2cc1C`
91.4

----------
- Test system: BT-549 breast
- Procedure text: NCI-60 one-dose screen, 48 h (100 = growth as untreated, 0 = no growth, -100 = all killed)
- Condition description: 10 µM
Compounds without any hit were thinned out: in the full panel of roughly 83,000, 20% have a hit. Active and inactive are the calls of the source. The calls were made as follows: active = growth percent below 10; inactive = the rest.
Value kind: growth

Consider the reported growth for these compounds:
// growth lookup, key: `Cc1cc2nc(CC(=O)c3ccccc3)c(=O)[nH]c2cc1C`
89.6% (inactive)

// growth lookup, key: CC1Cc2ccccc2O1 (centres undefined)
134% (inactive)

// growth lookup, key: CC(C)OC(C(=O)O)c1ccccc1 (centres undefined)
100% (inactive)

Next:
// growth lookup, key: `O=C(Cc1ccc(OCc2ccccc2)cc1)NCc1ccc2c(c1)OCO2`
56.1% (inactive)

// growth lookup, key: `O=C(O)/C=C/c1ccc2c(c1)CCC2`
100% (inactive)

// growth lookup, key: `N#Cc1c(N)sc(=S)c2c1CCCC2`
98.5% (inactive)

// growth lookup, key: `Oc1ccccc1O`
96% (inactive)

----------
- System: NCI/ADR-RES ovarian
- Procedure text: NCI-60 one-dose screen, 48 h
- Condition description: 10 µM
About 83,000 compounds went through this panel and 20% of them were active in at least one assay; those are over-represented in the sample as a whole. Calls of active or inactive are those of the source. Rule for the calls: active = growth percent below 10; inactive = the rest.
Outcomes you can answer with include only these: true = active, false = inactive

Could you check what this test reported for `Oc1ccc(Cc2ccccc2)c2cccnc12` ?
true

Next:
Could you check what this test reported for `CC(=O)c1c[nH]c2ccccc12` ?
false

Could you check what this test reported for `CCCC[P+](c1ccccc1)(c1ccccc1)c1ccccc1` ?
false

Could you check what this test reported for CC1SC(N)=NC1=O (stereo not drawn) ?
false

Could you check what this test reported for Oc1ccc2c(c1)OCC1(O)Cc3cc(O)c(O)cc3C21 (stereo not drawn) ?
false

Could you check what this test reported for OC1OC(COC(c2ccccc2)(c2ccccc2)c2ccccc2)C(O)C(O)C1O (stereo not drawn) ?
false

Could you check what this test reported for `O=[N+]([O-])c1ccc(CO)cc1` ?
false

Could you check what this test reported for `C=CCNc1nnc(C)s1` ?
false

Could you check what this test reported for COc1ccc(C2OC(N)=C(O)C2=O)cc1OC (stereo not drawn) ?
false

Could you check what this test reported for CC1CCC(C(=O)O)N1 (stereo not drawn) ?
false

Could you check what this test reported for `c1c(-c2cc(C3CC3)[nH]n2)n[nH]c1C1CC1` ?
false

Could you check what this test reported for `COC(=O)c1cccnc1` ?
false

Could you check what this test reported for `Nc1ccc(NC(=O)c2cccc(N)c2)cc1` ?
false

Could you check what this test reported for `Nc1ncnc2[nH]ncc12` ?
true

Could you check what this test reported for `Clc1ccc(-c2n[nH]c3c2Cc2ccccc2-3)cc1Cl` ?
false

Could you check what this test reported for `NC(=O)c1ccc(N=C(N)N=C(N)N)cc1` ?
false

Could you check what this test reported for `COC(=O)c1ccccc1Br` ?
false

Could you check what this test reported for `O=C(Nc1ccccc1C(=O)NCC1CC1)c1cccs1` ?
false

Could you check what this test reported for `COC(=O)/C=C1\Sc2cc(F)ccc2NC1=O` ?
false

Could you check what this test reported for `COc1cccc(O)c1O` ?
false

Could you check what this test reported for `CCOc1ccc(/C=C/C(=O)c2ccccc2)cc1` ?
false

----------
# growth annotations
- Test system: NCI-H460 lung
- Procedure text: NCI-60 one-dose screen, 48 h (100 = growth as untreated, 0 = no growth, -100 = all killed)
- Condition description: 10 µM
Compounds without any hit were thinned out: in the full panel of roughly 83,000, 20% have a hit. Active and inactive are the calls of the source. Rule for the calls: active = growth percent below 10; inactive = the rest.

// growth lookup, key: COc1cc2c3cc1Oc1c(OC)c(OC)cc4c1C(Cc1ccc(O)c(c1)Oc1ccc(cc1)CC3N(C)CC2)N(C)CC4 (stereo not drawn)
2.92% (active)

// growth lookup, key: `COc1ccc(OC)c(/C=C2\CCc3ccccc3C2=O)c1`
13.9% (inactive)

// growth lookup, key: `CN(C)CCN(C)CC(C)(C)C(=O)/C=C/c1ccc(Cl)cc1`
-14.9% (active)

Next:
// growth lookup, key: `OCCN(CCO)C(=S)S`
112% (inactive)

// growth lookup, key: `CN(C)c1ccc(C(c2ccc(O)cc2)c2ccc(N(C)C)cc2)cc1`
98.6% (inactive)

// growth lookup, key: `COC(=O)c1cccc(Br)c1`
109% (inactive)
